Provenance of the data: the RNAGym collection of RNA variant scans (doi:10.7554/elife.80360)

B1: CPEB3 Ribozyme (parent)
chain: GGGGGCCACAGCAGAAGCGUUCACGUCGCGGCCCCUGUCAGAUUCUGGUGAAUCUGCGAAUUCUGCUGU

# Variants of: B1
# TEST: self-cleavage, relative activity (ratio to wild type); higher = more cleavage; co-transcriptional

{"columns": ["RESIDUE CHANGE", "self-cleavage"],
 "data": [
  ["U38A A59U", 0.462],
  ["A15G C27G", 0.316],
  ["C35G U44A", 0.346],
  ["G1C C35U", 0.167],
  ["A8G C24U", 0.174],
  ["U49A A60C", 0.394],
  ["A23C U26G", 0.749],
  ["U43G C54G", 0.318],
  ["A51G U61G", 0.85],
  ["C24A C45G", 0.677],
  ["C34G A40U", 0.417],
  ["A13C G14A", 0.251],
  ["C22U U61G", 0.264],
  ["U38C G65U", 0.495],
  ["C12G U43C", 0.706],
  ["U20A U21C", 0.0963],
  ["A8G G11U", 0.189],
  ["C54G A60C", 0.282],
  ["G41A C66G", 0.429],
  ["G1C U26G", 0.152],
  ["U62A U64A", 0.452],
  ["U38G U44G", 0.346]
]}
